- Test system: RAW 264.7 cells
- testDescription: In vitro toxicity (CellTiter-Glo cell viability), RAW 264.7;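 further: percent of untreated cells luminescence signal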
- Format: cell-based
- measurementContext: cirRNA (SEQ ID NO: 1) LNPs; RAW 264.7 cells
observable: In vitro Viability RAW (%)
Just the number please, in %, no unit attached.

Solved entries (count: 6):
compound	observable	experimentalResult
CCCCCCCCCC(=O)OCCCCCCCN(CCCCCCCCOC(=O)C(CCCCCC)CCCCCCCC)CCOC(=O)NCCN1CCN(C)CC1 (stereo not shown)	In vitro Viability RAW	0
CCCCCCCCCCCOC(=O)CCCCCN(CCCCCC(=O)OCCCCCCCCCCC)CCOC(=O)NCCN1CCCC1	In vitro Viability RAW	99
CCCCCCCCC(CCCCCCCC)OC(=O)CCCCCCCN(CCCCCCCCOC(=O)C(CCCCCC)CCCCCCCC)CCCOC(=O)NCCN1CCCCC1 (stereo not shown)	In vitro Viability RAW	98
CCCCC/C=C\CCOC(=O)CCCCCN(CCCCCC(=O)OCC(CCCCCCCC)CCCCCCCCCC)CCOC(=O)NCCN1CCCC1 (stereo not shown)	In vitro Viability RAW	90
CCCCCCCCCCCOC(=O)CCCCCN(CCCCCCCCOC(=O)C(CCCCCC)CCCCCCCC)CCOC(=O)NCCN1CCCCC1 (stereo not shown)	In vitro Viability RAW	83
CCCCCCCCCC(=O)OCCCCCCCN(CCCCCCCCOC(=O)C(CCCCCC)CCCCCCCC)CCOC(=O)NCc1ncc[nH]1 (stereo not shown)	In vitro Viability RAW	90

Now for a further compound.
(Q) Would you kindly share the measured In vitro Viability RAW for CCCCCCOC(=O)CCCCCCCCCCN(CCCCCCCCCCC(=O)OCCCCCC)CCOC(=O)NCCN(C)C ?
(A) 8

====

- System: Hep G2 cells
- testDescription: In vitro toxicity (CellTiter-Glo cell viability), Hep G2;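 further: percent of untreated cells luminescence signal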
- Type: cell-based
- measurementContext: cirRNA (SEQ ID NO: 1) LNPs; Hep G2 cells
Please assign Criterion not met whenever In vitro Viability HepG2 is at or above 80%, and Criterion met whenever it is below.

molecule	qualitativeLabel
CCCCCCCCCC(=O)OCCCCCCCN(CCCCCCCCOC(=O)C(CCCCCC)CCCCCCCC)CCCOC(=O)NCCN1CCN(C)CC1 (stereo not shown)	Criterion not met
CCCCCCOC(=O)CCCCCCCCCCN(CCCCCCCCCCC(=O)OCCCCCC)CCOC(=O)NCCN1CCN(C)CC1	Criterion met
CCCCCCCCCC(=O)OCCCCCCCN(CCCCCCCCOC(=O)C(CCCCCC)CCCCCCCC)CCOC(=O)NCCN1CCCC1 (stereo not shown)	Criterion not met
CCCCCCCCCCC(CCCCCCCC)COC(=O)CCCCCN(CCCCCC(=O)OCC(CCCCCCCC)CCCCCCCCCC)CCCOC(=O)NCCN1CCN(C)CC1 (stereo not shown)	Criterion not met
CCCCCCCCCCCOC(=O)CCCCCN(CCCCCCCC(=O)OC(CCCCCCCC)CCCCCCCC)CCOC(=O)NCCN1CCOCC1	Criterion not met

(Q) Does this molecule meet the criterion In vitro Viability HepG2 < 80%? CCCCCCCC/C=C\CCCCCCCCN(CCCCCCCCOC(=O)C(CCCCCC)CCCCCCCC)CCOC(=O)NCCN1CCOCC1 (stereo not shown)
(A) Criterion not met

====

- System: RAW 264.7 cells
- testDescription: In vitro toxicity (CellTiter-Glo cell viability), RAW 264.7;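 further: percent of untreated cells luminescence signal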
- Type: cell-based
- measurementContext: cirRNA (SEQ ID NO: 1) LNPs; RAW 264.7 cells
Definition: the class of an entry is the range in bottom (below 70%), middle (70% to below 90%), top (90% or more) that contains its In vitro Viability RAW.

compound	qualitativeLabel
CCCCCCCOC(=O)CCCCCCCCCN(CCCCCCCCCC(=O)OCCCCCCC)CCOC(=O)NCCN1CCCC1 [Lipid 119]	bottom
CCCCCCCCCC(=O)OCCCCCCCN(CCCCCCCOC(=O)CCCCCCCCC)CCOC(=O)NCc1ncc[nH]1 [Lipid 176]	top
CCCCCCCCC(CCCCCC)C(=O)OCCCCCCCCN(CCCCCCCCOC(=O)C(CCCCCC)CCCCCCCC)CCCOC(=O)NCCCN(CC)CC (stereo not drawn) [Lipid 376]	middle
CCCCCCCCC(CCCCCCCC)OC(=O)CCCCCCCN(CCCCCCCCOC(=O)C(CCCCCC)CCCCCCCC)CCOC(=O)NCCCN(C)C (stereo not drawn) [Lipid 146]	top
CCCCC/C=C\C/C=C\CCCCCCCCN(CCCCCCCC(=O)OC(CCCCCCCC)CCCCCCCC)CCOC(=O)NCCN1CCCC1 [Lipid 128]	bottom
CCCCCCCCCCC(CCCCCCCC)COC(=O)CCCCCN(CCCCCC(=O)OCC(CCCCCCCC)CCCCCCCCCC)CCCOC(=O)NCCNC(C)C (stereo not drawn) [Lipid 368]	bottom
CCCCC/C=C\C/C=C\CCCCCCCCN(CCCCCC(=O)OCC(CCCCCCCC)CCCCCCCCCC)CCOC(=O)NCCN(C)C (stereo not drawn) [Lipid 75]	middle
CCCCCCCCCC(=O)OCCCCCCCN(CCCCCCCCOC(=O)C(CCCCCC)CCCCCCCC)CCCOC(=O)NCCN1CCN(C)CC1 (stereo not drawn) [Lipid 362]	bottom
CCCCCCCCC(CCCCCCCC)OC(=O)CCCCCCCN(CCCCCCCCOC(=O)C(CCCCCC)CCCCCCCC)CCCOC(=O)NCCN1CCCC1 (stereo not drawn) [Lipid 350]	middle
CCCCCCOC(=O)CCCCCCCCCCN(CCCCCCCCCCC(=O)OCCCCCC)CCOC(=O)NCCN1CCOCC1 [Lipid 139]	bottom

(Q) Hello team, could you let me know which band the following compound falls into: CCCCCCCOC(=O)CCCCCCCCCN(CCCCCCCCCC(=O)OCCCCCCC)CCOC(=O)NCCCN(CC)CC [Lipid 122]
(A) bottom

(Q) Please give the result for CCCCCCCCCCCOC(=O)CCCCCN(CCCCCCCCOC(=O)C(CCCCCC)CCCCCCCC)CCOC(=O)NCCN1CCN(C)CC1 (stereo not drawn) [Lipid 222] too.
(A) middle

(Q) Please give the result for CCCCC/C=C\CCOC(=O)CCCCCN(CCCCCCCCOC(=O)C(CCCCCC)CCCCCCCC)CCOC(=O)NCCN1CCCCC1 (stereo not drawn) [Lipid 192] too.
(A) middle

(Q) Please give the result for CCCCCCCCC(CCCCCC)C(=O)OCCCCCCCCN(CCCCCCCCOC(=O)C(CCCCCC)CCCCCCCC)CCCOC(=O)NCCN1CCC1 (stereo not drawn) [Lipid 382] too.
(A) middle

(Q) Please give the result for CCCCCCCC/C=C\CCCCCCCCN(CCCCCCCCOC(=O)C(CCCCCC)CCCCCCCC)CCOC(=O)NCCN1CCOCC1 (stereo not drawn) [Lipid 215] too.
(A) middle

(Q) Please give the result for CCCCCCCCC(CCCCCCCC)OC(=O)CCCCCCCN(CCCCCCCCOC(=O)C(CCCCCC)CCCCCCCC)CCOC(=O)NCCN1CCCCC1 (stereo not drawn) [Lipid 149] too.
(A) top

(Q) Please give the result for CCCCCCCCCCCOC(=O)CCCCCN(CCCCCC(=O)OCCCCCCCCCCC)CCOC(=O)NCc1ncc[nH]1 [Lipid 155] too.
(A) top

(Q) Please give the result for CCCCCCCCC(CCCCCC)C(=O)OCCCCCCCCN(CCCCCCCCOC(=O)C(CCCCCC)CCCCCCCC)CCCOC(=O)NCCN(C)C (stereo not drawn) [Lipid 374] too.
(A) middle

(Q) Please give the result for CCCCC/C=C\C/C=C\CCCCCCCCN(CCCCCCCC(=O)OC(CCCCCCCC)CCCCCCCC)CCOC(=O)NCCN1CCOCC1 [Lipid 134] too.
(A) middle

(Q) Please give the result for CCCCC/C=C\CCOC(=O)CCCCCN(CCCCCCCCOC(=O)C(CCCCCC)CCCCCCCC)CCOC(=O)NCc1ncc[nH]1 (stereo not drawn) [Lipid 185] too.
(A) middle

(Q) Please give the result for CCCCCCCCC(CCCCCC)C(=O)OCCCCCCCCN(CCCCCCCCOC(=O)C(CCCCCC)CCCCCCCC)CCCOC(=O)NCCN1CCN(C)CC1 (stereo not drawn) [Lipid 377] too.
(A) middle

(Q) Please give the result for CCCCCCCCC(CCCCCCCC)OC(=O)CCCCCCCN(CCCCCCCCOC(=O)C(CCCCCC)CCCCCCCC)CCOC(=O)NCCN1CCCC1 (stereo not drawn) [Lipid 148] too.
(A) bottom

====

- System: Hep G2 cells
- testDescription: In vitro toxicity (CellTiter-Glo cell viability), Hep G2;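 further: percent of untreated cells luminescence signal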
- Assay type: cell-based
- measurementContext: cirRNA (SEQ ID NO: 1) LNPs; Hep G2 cells
Measured In vitro Viability HepG2 values are reported for all entries that follow.
Just the number please, in %, no unit attached.

Solved entries (count: 6):
molecule	valueUnit	experimentalResult
CCCCCCCC/C=C\CCCCCCCCN(CCCCCCCCOC(=O)C(CCCCCC)CCCCCCCC)CCOC(=O)NCCCn1ccnc1 (stereo not shown) [Lipid 217]	%	82
CCCCCCCCC(CCCCCCCC)OC(=O)CCCCCCCN(CCCCCCCCOC(=O)C(CCCCCC)CCCCCCCC)CCCNCCN(C)C (stereo not shown) [Lipid 363]	%	112
CCCCCCCCC(CCCCCC)C(=O)OCCCCCCCCN(CCCCCCCCOC(=O)C(CCCCCC)CCCCCCCC)CCCOC(=O)NCCCN(C)C (stereo not shown) [Lipid 378]	%	26
CCCCCCCCCCCOC(=O)CCCCCN(CCCCCCCCOC(=O)C(CCCCCC)CCCCCCCC)CCOC(=O)NCCN(C)C (stereo not shown) [Lipid 220]	%	89
CCCCC/C=C\C/C=C\CCCCCCCCN(CCCCCC(=O)OCC(CCCCCCCC)CCCCCCCCCC)CCOC(=O)NCCN1CCN(C)CC1 (stereo not shown) [Lipid 78]	%	113
CCCCCCCCC(CCCCCC)C(=O)OCCCCCCCCN(CCCCCCCCOC(=O)C(CCCCCC)CCCCCCCC)CCCNCCN(C)C (stereo not shown) [Lipid 384]	%	81

(Q) Would you kindly share the measured In vitro Viability HepG2 for CCCCCCCCC(CCCCCCCC)OC(=O)CCCCCCCN(CCCCCCCCOC(=O)C(CCCCCC)CCCCCCCC)CCOC(=O)NCCN1CCCC1 (stereo not shown) [Lipid 148] ?
(A) 47
